System: C. acnes strain C3
Experiment: Evaluation of the minimum inhibitory concentration (MIC) of cosmetic excipients
Type: cell-based, Cutibacterium acnes
Details: % w/vol, incubated anaerobically 3 days at 37° C., scored for growth or complete growth inhibition
The reader will find reported COMPATABILITY VALUE C3 [%] (MIC) values listed item by item below.
Quick reminder: number only, in %, skip the unit.

[[record]]
compound = "O=C(O)CC(O)(CC(=O)O)C(=O)O"
observed_measurement = 0.33


Tested on C. acnes strain C3, the item CC(=O)Oc1c(C)c(C)c2c(c1C)CCC(C)(CCC[C@H](C)CCC[C@H](C)CCCC(C)C)O2 (stereo partly shown) [tocopheryl acetate] showed COMPATABILITY VALUE C3 [%] (MIC) equal to 1.00

Summary: CCCCCCC(O)CO (stereo not shown) , C. acnes strain C3, COMPATABILITY VALUE C3 [%] (MIC) = 0.18

Simply: CC(CO)CO , C. acnes strain C3, COMPATABILITY VALUE C3 [%] (MIC) = 4.00

The measured values listed here are drawn from patent US12685708B2.
